# Experiment Summary: physchem
# Type: physicochemical
# Reported Conditions: pH 4
Property Name: solubility at 24 h (µg/mL)
Write the number in µg/mL without appending the unit.

**Q:** Entry `COc1ccc2c(c1)c(CC(=O)O)c(C)n2C(=O)c1ccc(Cl)cc1` has what solubility at 24 h?
**A:** 640

* * *

# Experiment Summary: physchem
# Type: physicochemical
# Reported Conditions: 40 °C, pH 3, aqueous buffer, thermodynamic from solid
Property Name: solubility at 24 h (µg/mL)
Write the number in µg/mL without appending the unit.

**Q:** Entry COc1ccc2c(c1)c(CC(=O)O)c(C)n2C(=O)c1ccc(Cl)cc1 [indomethacin] has what solubility at 24 h?
**A:** 2

* * *

# Experiment Summary: physchem
# Format: physicochemical
# Reported Conditions: 40 °C, pH 4, aqueous buffer, thermodynamic from solid
Property Name: solubility at 24 h (µg/mL)
Write the number in µg/mL without appending the unit.

**Q:** Entry COc1ccc2c(c1)c(CC(=O)O)c(C)n2C(=O)c1ccc(Cl)cc1 [indomethacin] has what solubility at 24 h?
**A:** 3
